- Experimental System: human PAD4 (Homo sapiens)
- Construct: human PAD4 (NM_012387), A2-P663, was PCR amplified; His-SUMO (N, cleaved yes)
- Assay Overview: In vitro PAD4 BAEE biochemical assay
- Assay Context: BAEE substrate 3 mM, 5 nM PAD4, 2 mM calcium chloride; geometric mean of multiple experiments
Property Name: IC50 (µM)
Give just the number in µM; leave the unit off.

// known answers, use as guide
C[C@H]1NC(=O)[C@@H]2C[C@H]2CCCCCn2c(-c3nc4cc(C(=O)N[C@H]5CNCC[C@@H]5F)c(F)cc4n3CCO)cc3ccc1nc32 [Example 601] ... 0.045
C[C@H]1NC(=O)c2c(ccc3cccnc23)CCCCCn2c(-c3nc4cc(C(=O)N5C[C@H](N)[C@@H]6CC[C@H]5C6)cc(F)c4n3C3CC3)cc3ccc1nc32 [Example 841] ... 0.017
COc1cc(C(=O)N2CC[C@@H](OC)[C@@H](N)C2)cc2nc(-c3cc4ccc5nc4n3CCCCCC[C@@H](OC)C(=O)N[C@@H]5C)n(C)c12 [Example 628] ... 0.083
COc1cc(C(=O)N[C@H]2CNCC[C@@H]2F)cc2nc(-c3cc4ccc5nc4n3CCCCC[C@H]3C[C@H]3C(=O)N[C@@H]5C)n(C)c12 [Example 518] ... 0.049
COc1cc(C(=O)N2C[C@H](N)[C@@H]3CC[C@H]2C3)cc2nc(-c3cc4ccc5nc4n3CCCCC[C@@H]3C[C@@]3(C)C(=O)N[C@@H]5C)n(C)c12 [Example 917] ... 0.027

Now take the following compound into account.
Entry under test: COc1cc(C(=O)N[C@@H]2CC[C@H](C)NC2)cc2nc(-c3cc4ccc5nc4n3CCCCCCC3(CC3)C(=O)N[C@@H]5C)n(C)c12 [Example 72] . Its IC50 was 0.308

====

- Experimental System: human PAD4 (Homo sapiens)
- Construct: human PAD4 (NM_012387), A2-P663, was PCR amplified; His-SUMO (N, cleaved yes)
- Assay Overview: In vitro PAD4 BAEE biochemical assay
- Assay Context: BAEE substrate 3 mM, 5 nM PAD4, 2 mM calcium chloride; geometric mean of multiple experiments
Lab note: class by IC50, see low = under 40 nM, moderate = from 40 nM up to 60 nM, high = 60 nM and over

Here's what some known entries look like.
C[C@H]1NC(=O)[C@@H]2C[C@H]2CCCC(F)(F)Cn2c(-c3nc4cc(C(=O)N5C[C@H](N)C[C@@H](F)C5)cc(F)c4n3C3CC3)cc3ccc1nc32 ... low
COc1cc(C(=O)N2CC[C@@H](OC)[C@@H](N)C2)cc2nc(-c3cc4ccc5nc4n3CCCCCc3cc4ccccc4nc3C(=O)N[C@@H]5C)n(C)c12 ... high

Query :: Band for C[C@@H]1c2ccc3cc(-c4nc5cc(C(=O)N[C@H]6CNCC[C@@H]6F)c(F)cc5n4C4CC4)n(c3n2)CCCCCc2nc(Cl)ccc2C(=O)N1C ?
Result :: low

====

- Experimental System: human PAD4 (Homo sapiens, UniProt Q9UM07)
- Construct: human PAD4 (NM_012387), A2-P663, was PCR amplified; His-SUMO (N, cleaved yes); made in house; host or cells: E. coli BL21(DE3)
- Sequence (Q9UM07 2-663): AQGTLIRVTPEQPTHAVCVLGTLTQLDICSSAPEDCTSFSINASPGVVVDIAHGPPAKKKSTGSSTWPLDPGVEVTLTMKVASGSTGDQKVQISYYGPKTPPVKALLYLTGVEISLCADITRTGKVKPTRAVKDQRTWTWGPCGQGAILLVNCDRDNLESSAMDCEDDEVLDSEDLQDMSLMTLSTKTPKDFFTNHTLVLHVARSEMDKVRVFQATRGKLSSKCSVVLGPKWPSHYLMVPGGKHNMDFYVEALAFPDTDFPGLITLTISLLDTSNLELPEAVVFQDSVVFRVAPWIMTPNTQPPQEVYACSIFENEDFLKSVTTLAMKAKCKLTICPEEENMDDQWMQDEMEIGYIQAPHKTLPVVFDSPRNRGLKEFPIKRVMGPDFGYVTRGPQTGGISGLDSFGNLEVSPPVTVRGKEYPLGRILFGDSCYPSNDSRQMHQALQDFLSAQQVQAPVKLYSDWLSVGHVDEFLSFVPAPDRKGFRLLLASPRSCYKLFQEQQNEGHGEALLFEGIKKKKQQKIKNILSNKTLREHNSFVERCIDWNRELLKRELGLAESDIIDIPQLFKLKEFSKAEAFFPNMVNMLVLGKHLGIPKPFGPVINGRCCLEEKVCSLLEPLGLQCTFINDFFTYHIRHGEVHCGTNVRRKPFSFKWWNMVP
- Assay Overview: In vitro PAD4 BAEE biochemical assay
- Assay Context: BAEE substrate 3 mM, 5 nM PAD4, 2 mM calcium chloride; geometric mean of multiple experiments
Assign labels as follows, please: label 1 for IC50 below 100 nM; label 0 for IC50 equal to or exceeding 100 nM.

Here's what some known entries look like.
COc1cc(C(=O)N2CC[C@@H](OC)[C@@H](N)C2)cc2nc(-c3cc4ccc5nc4n3CCC/C=C/[C@@H]3C[C@@]3(C(F)(F)F)C(=O)N[C@@H]5C)n(C)c12 [Example 635] ... label 0
CO[C@@H]1CCN(C(=O)c2cc(F)c3c(c2)nc(-c2cc4ccc5nc4n2CC(F)(F)/C=C/C[C@@H]2C[C@H]2C(=O)N[C@@H]5C)n3C2CC2)C[C@@H]1N [Example 742] ... label 1
COc1cc(C(=O)N2CC[C@@H](OC)[C@@H](N)C2)cc2nc(-c3cc4ccc5nc4n3CCCCCCC(C)(C)C(=O)NC5C3CC3)n(C)c12 (some centres unmarked) [Example 778] ... label 0

Query :: Does this compound meet the criterion IC50 < 100 nM? COc1cc(C(=O)N2[C@H]3CC[C@@H]2[C@H](N)C3)cc2nc(-c3cc4ccc5nc4n3CC(F)(F)CCCCCC(=O)N[C@@H]5C)n(C)c12 [Example 534]
Result :: label 1

Query :: Does this compound meet the criterion IC50 < 100 nM? C[C@H]1NC(=O)[C@@H]2C[C@H]2CCCCCn2c(-c3nc4cc(C(=O)N5C[C@H](N)[C@@H]6CC[C@H]5C6)cc(OC(F)F)c4n3C3CC3)cc3ccc1nc32 [Example 759]
Result :: label 1

Query :: Does this compound meet the criterion IC50 < 100 nM? COc1cc(C(=O)N2[C@H]3CC[C@@H]2[C@H](N)C3)cc2nc(-c3cc4ccc5nc4n3CCCCCC(C)(C)C(=O)N[C@@H]5C)n(C)c12 [Example 102]
Result :: label 1

Query :: Does this compound meet the criterion IC50 < 100 nM? COc1cc(C(=O)N[C@H]2CNCC[C@@H]2F)cc2nc(-c3cc4ccc5nc4n3C[C@H]3C[C@H]3CCC[C@](C)(C(F)(F)F)C(=O)N[C@@H]5C)n(C)c12 [Example 371]
Result :: label 0

Query :: Does this compound meet the criterion IC50 < 100 nM? COc1cc(C(=O)N2C[C@H](N)[C@@H]3CC[C@H]2C3)cc2nc(-c3cc4ccc5nc4n3CCCCCc3cc(Cl)ncc3C(=O)N[C@@H]5C)n(C)c12 [Example 665]
Result :: label 1

Query :: Does this compound meet the criterion IC50 < 100 nM? COc1cc(C(=O)N2[C@H]3CC[C@@H]2[C@H](N)C3)cc2nc(-c3cc4ccc5nc4n3CCCCCCCC(=O)N(C)[C@@H]5C)c(C)n12 [Example 319]
Result :: label 0

Query :: Does this compound meet the criterion IC50 < 100 nM? COc1cc(C(=O)N2CCC[C@@H](N)C2)cc2nc(-c3cc4ccc5nc4n3CCCCCc3cccc(C)c3C(=O)N[C@@H]5C)n(C)c12 [Example 361]
Result :: label 1

====

- Experimental System: human PAD4 (Homo sapiens, UniProt Q9UM07)
- Construct: human PAD4 (NM_012387), A2-P663, was PCR amplified; His-SUMO (N, cleaved yes)
- Assay Overview: In vitro PAD4 BAEE biochemical assay
- Assay Context: BAEE substrate 3 mM, 5 nM PAD4, 2 mM calcium chloride; geometric mean of multiple experiments
Property Name: IC50 (nM)
Give just the number in nM; leave the unit off.

// known answers, use as guide
COc1cc(C(=O)N2CCC[C@@H](N)C2)cc2nc(-c3cc4ccc5nc4n3CCCCCc3nccnc3C(=O)N[C@@H]5C)n(C)c12 [Example 627] ... 49
COc1cc(C(=O)N2CCC[C@@H](N)C2)cc2nc(-c3cc4ccc5nc4n3CCCCCCC(C)(C)C(=O)N[C@@H]5C)n(C3CC3)c12 [Example 230] ... 84

Now take the following compound into account.
Entry under test: CO[C@@H]1CCN(C(=O)c2cc(F)c3c(c2)nc(-c2cc4ccc5nc4n2CCCCCc2nccnc2C(=O)N[C@@H]5C)n3C)C[C@@H]1N [Example 513] . Its IC50 was 161

====

- Experimental System: human PAD4 (Homo sapiens, UniProt Q9UM07)
- Construct: human PAD4 (NM_012387), A2-P663, was PCR amplified; His-SUMO (N, cleaved yes)
- Assay Overview: In vitro PAD4 BAEE biochemical assay
- Assay Context: BAEE substrate 3 mM, 5 nM PAD4, 2 mM calcium chloride; geometric mean of multiple experiments
Property Name: pIC50
Worth noting: pIC50 values are minus log10 of concentrations stated in mol/L.

C[C@H]1NC(=O)c2ccc(C3CC3)nc2CCCCCn2c(-c3nc4cc(C(=O)N5C[C@H](N)[C@@H]6CC[C@H]5C6)cc(F)c4n3C3CC3)cc3ccc1nc32 ... 7.59

Entry under test: COc1cc(C(=O)N2CC[C@@H](OC)[C@@H](N)C2)cc2nc(-c3cc4ccc5nc4n3CC(F)(F)CCCOC3(CC3)C(=O)N[C@@H]5C)n(C)c12 . Its pIC50 was 6.84

Entry under test: COc1cc(C(=O)N2[C@H]3CC[C@@H]2[C@H](N)C3)cc2nc(-c3cc4ccc5nc4n3CCCCCCCC(=O)N(C)C5)n(C)c12 . Its pIC50 was 7.32

Entry under test: COc1cc(C(=O)N2[C@H]3CC[C@@H]2[C@H](N)C3)cc2nc(-c3cc4ccc5nc4n3CCCCCCCC(=O)N[C@@H]5C)n(C)c12 . Its pIC50 was 8.15

Entry under test: COc1cc(C(=O)N2CCC[C@@H](N)C2)cc2nc(-c3cc4ccc5nc4n3C[C@@H]3C[C@H]3C(OC)CCCC(=O)N[C@@H]5C)n(C)c12 (stereo partly shown) [Example 270] . Its pIC50 was 7.05

Entry under test: COc1cc(C(=O)N2[C@H]3CC[C@@H]2[C@H](N)C3)cc2nc(-c3cc4ccc5nc4n3CCCCCCN(C)C(=O)N[C@@H]5C)c(C)n12 . Its pIC50 was 7.66

Entry under test: COc1cc(C(=O)N2[C@H]3CC[C@@H]2[C@H](N)C3)cc2nc(-c3cc4ccc5nc4n3CCCCOCC(=O)N3CCC[C@H]53)n(C)c12 . Its pIC50 was 7.33
